I'd appreciate it if you could supply IC50 values for the items below.
Target: human recombinant ENPP1 (Homo sapiens, UniProt P22413)
Construct: purchased R&D systems
Sequence (P22413 1-925): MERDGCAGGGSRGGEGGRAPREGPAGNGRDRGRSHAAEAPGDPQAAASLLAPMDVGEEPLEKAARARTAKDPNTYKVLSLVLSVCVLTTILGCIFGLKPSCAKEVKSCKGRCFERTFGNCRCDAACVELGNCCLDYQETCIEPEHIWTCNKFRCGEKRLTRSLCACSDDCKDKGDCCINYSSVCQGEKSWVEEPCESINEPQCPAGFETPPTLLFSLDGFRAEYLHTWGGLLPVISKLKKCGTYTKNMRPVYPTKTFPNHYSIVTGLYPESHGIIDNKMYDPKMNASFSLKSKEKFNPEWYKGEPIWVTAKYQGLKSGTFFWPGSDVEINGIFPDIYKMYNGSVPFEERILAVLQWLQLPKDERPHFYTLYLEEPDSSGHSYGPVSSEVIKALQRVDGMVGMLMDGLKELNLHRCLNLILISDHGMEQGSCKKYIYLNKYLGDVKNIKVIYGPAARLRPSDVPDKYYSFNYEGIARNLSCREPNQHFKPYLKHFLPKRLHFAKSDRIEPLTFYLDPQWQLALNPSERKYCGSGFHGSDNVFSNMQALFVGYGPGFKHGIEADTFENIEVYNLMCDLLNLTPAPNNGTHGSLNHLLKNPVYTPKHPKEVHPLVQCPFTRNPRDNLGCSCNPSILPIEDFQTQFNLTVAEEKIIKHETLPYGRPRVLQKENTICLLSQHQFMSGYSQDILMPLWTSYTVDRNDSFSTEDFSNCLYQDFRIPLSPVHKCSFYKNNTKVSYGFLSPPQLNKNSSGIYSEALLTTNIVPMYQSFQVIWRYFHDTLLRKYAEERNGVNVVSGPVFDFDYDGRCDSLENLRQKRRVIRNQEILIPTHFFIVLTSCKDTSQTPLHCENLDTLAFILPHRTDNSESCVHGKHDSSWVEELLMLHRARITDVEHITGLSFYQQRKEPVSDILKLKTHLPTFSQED
Assay: in vitro recombinant human ENPP1 enzymatic assay (AMP-Glo, cGAMP substrate)
Format: biochemical
Settings: Table 1; average ± SD from two or three independent repeats
The reply should contain only the number, in nM.

Could you tell me which IC50 is on file for NS(=O)(=O)NC1CCN(c2ncnc3[nH]ccc23)CC1 [18q] ?
3320

Same question, NS(=O)(=O)NCC1CCN(c2ncnc3[nH]ccc23)CC1 [18c] this time
19

Please give the result for CC(C)n1ccc2c(N3CCC(CNS(N)(=O)=O)CC3)ncnc21 [18e] too.
20700

Further, for CC(NS(N)(=O)=O)C1CCN(c2ncnc3[nH]ccc23)CC1 (stereo not drawn) [18o] ?
250

Okay, and NS(=O)(=O)NCC1CCN(c2ncnc3c2ccn3-c2cccnc2)CC1 [18l] ?
1850

Do the same for NS(=O)(=O)NCC1CCN(c2ncnc3c2ccn3-c2ccccc2)CC1 [18g] please
298

Field entry: NS(=O)(=O)NCC1CCN(c2ncnc3c2ccn3-c2ccoc2)CC1 [18k]
54.1

Next entry: Cn1ccc2c(N3CCC(CNS(N)(=O)=O)CC3)ncnc21 [18d]
51.4

And what about the molecule CSc1nc(N2CCC(CCNS(N)(=O)=O)CC2)c2cc[nH]c2n1 [18b] ?
21600

# iterate: NS(=O)(=O)NCC1CCN(c2ncnc3c2ccn3C2CC2)CC1 [18f]
74

Repeat for the following molecule: Cc1c[nH]c2ncnc(N3CCC(CNS(N)(=O)=O)CC3)c12 [18m]
462

Consider next the molecule Cc1cc2c(N3CCC(CNS(N)(=O)=O)CC3)ncnc2[nH]1 [18n] in the same way.
218
